assay.context: buffer; pH 7.4; 200.0 µM
readout.label: solubility kinetic

// worked examples, solubility kinetic included
CCn1c(C)cc(O)cc1=O ... > 23 µg/mL
Cl.O=C(NCC(c1ccc(F)cc1)N1CCOCC1)c1ccc([N+](=O)[O-])o1 (configuration not stated) ... > 60 µg/mL
Cc1cn2c(nc1=O)OC1CC2OC1CO (configuration not stated) ... > 33.6 µg/mL
O=C(COc1ccc(F)cc1Br)NCCCN1CCCC1=O ... > 56 µg/mL
COc1ccccc1NC(=O)CSc1nncs1 ... > 42.2 µg/mL

Consider the compound CCS(=O)(=O)NCCNc1ccc([N+](=O)[O-])cc1 and give its measured solubility kinetic.
> 41 µg/mL

Consider the compound C=CCn1c(SCC(=O)N(C)CC(=O)Nc2ccc(C)cc2)nnc1-c1ccncc1 and give its measured solubility kinetic.
> 65.5 µg/mL

Consider the compound Cl.O=C(Cc1ccccc1)NCCN1CCCC1 and give its measured solubility kinetic.
> 40.3 µg/mL

Consider the compound O=C(NCc1ccccc1Cl)C1CCN(C(=O)c2ccco2)CC1 and give its measured solubility kinetic.
> 52 µg/mL

Consider the compound O=[N+]([O-])c1ccc(-c2cnc[nH]2)cc1 and give its measured solubility kinetic.
> 28.4 µg/mL

Consider the compound CC(C)Cn1c(=O)[nH]c(=O)c2c(C(F)(F)F)cc(-c3ccccc3)nc21 and give its measured solubility kinetic.
< 0.3 µg/mL

Consider the compound COc1ccc(NC(=O)COC(=O)C23CC4CC(CC(O)(C4)C2)C3)cc1Cl and give its measured solubility kinetic.
> 59.1 µg/mL
